Hey, just so you know, these numbers are from ChEMBL document CHEMBL5442219.

biological target: Beta-1 adrenergic receptor (Homo sapiens); conditions: Compound concentration 10 µM
Description: PDSP Primary Binding target: ADRB1 - Compounds are tested at 10 uM concentration, plate are incubated at room temperature in the dark for 90 minutes. Reaction are stopped by vacuum filtration onto 0.3% polyethyleneimine soaked filter mats using Filtermate harvester. Scintilation cocktail is then melted onto microwave-dried filters on a hot plate and the radio activity is counted in Microbia counter.
Parameter Measured: inhibition (%)
// note: answer is a bare numeric in %

Known inhibition results, listed for orientation:
| Smiles Representation | inhibition [%] |
| --- | --- |
| CCCCCNC(=O)NS(=O)(=O)c1cc([N+](=O)[O-])ccc1NC1CCCCC1 | 18.5 |
| CSc1ccc(C(=O)N[C@@H]2CCCC[C@@H]2NC(=O)CNC(=O)c2cc(C(F)(F)F)ccc2NC(=O)NC(C)C)cc1 | -9.46 |
| CCCn1c(=O)c2[nH]c(-c3cnn(Cc4cccc(C(F)(F)F)c4)c3)nc2n(CC)c1=O | -6.47 |

Suppose we examine the compound `COc1ccc(NS(=O)(=O)c2sc3ccc(Cl)cc3c2C)cc1N1CCNCC1` ; what inhibition value has been reported?
50.6

Suppose we examine the compound `C[C@]1(C(=O)N(CCCC(=O)O)Cc2cccc(Cl)c2)CCN1C(=O)c1csc2ccccc12` ; what inhibition value has been reported?
1.62
